Experiment: Plasma pharmacokinetics of BI 187004 after single oral doses (LC–MS/MS)
Conditions: male, human, plasma, po, 20 mg, BI 187004 plasma concentrations, 20 mg single oral, planned time 2.5 h, individual subjects
REPORTED ENDPOINT: concentration at 2.5 h (nM)

compound="N#Cc1ccc2c(c1)[C@H]1CCCN(C(=O)c3ccc4[nH]cnc4c3)[C@H]1C2 [BI 187004]" reported_endpoint="concentration at 2.5 h" observed_result=1060

* * *

Assay: Plasma pharmacokinetics of BI 187004 after single oral doses (LC–MS/MS)
Conditions: male, human, plasma, po, 40 mg, BI 187004 plasma concentrations, 40 mg single oral, planned time 48 h, gMean
REPORTED ENDPOINT: concentration at 48 h

smiles_input=N#Cc1ccc2c(c1)[C@H]1CCCN(C(=O)c3ccc4[nH]cnc4c3)[C@H]1C2 observed_result="73 nM"

* * *

Experiment: BI 187004 concentration in subcutaneous adipose tissue biopsies (LC–MS/MS)
Format: in vivo, human
Details: male, human, subcutaneous adipose tissue / plasma, oral; 80 mg single dose; 24 h; read-out: AT:plasma ratio (range) 24 h
REPORTED ENDPOINT: Kp at 24 h

smiles_input=N#Cc1ccc2c(c1)[C@H]1CCCN(C(=O)c3ccc4[nH]cnc4c3)[C@H]1C2 reported_endpoint="Kp at 24 h" observed_result=9.62

* * *

Assay: BI 187004 concentration in subcutaneous adipose tissue biopsies (LC–MS/MS)
Format: in vivo, human
Conditions: male, human, subcutaneous adipose tissue / plasma, oral; 160 mg single dose; 10 h; read-out: AT:plasma ratio (range) 10 h
Experimental: The assay was qualified for the BI 187004 concentration range of 2.5—10,000 ng/g. The BI 187004 AT concentration data for study samples were generated from seven analytical runs. For each run, the acceptance criteria for the calibration standards and QC samples were met. Acceptance criteria for all sample analysis runs were ≤ 25% RSD (relative standard deviation / precision) and ± 25% RE (relative error / accuracy) for calibration standards and quality control samples.
REPORTED ENDPOINT: Kp at 10 h

compound="N#Cc1ccc2c(c1)[C@H]1CCCN(C(=O)c3ccc4[nH]cnc4c3)[C@H]1C2 [BI 187004]" observed_result=13.7

* * *

Assay: Plasma pharmacokinetics of BI 187004 after single oral doses (LC–MS/MS)
Conditions: male, human, plasma, po, 80 mg, BI 187004 plasma concentrations, 80 mg single oral, planned time 8 h, Median
REPORTED ENDPOINT: concentration at 8 h (nM)

smiles_input=N#Cc1ccc2c(c1)[C@H]1CCCN(C(=O)c3ccc4[nH]cnc4c3)[C@H]1C2 observed_result=1690

* * *

Experiment: Plasma pharmacokinetics of BI 187004 after single oral doses (LC–MS/MS)
Conditions: male, human, plasma, po, 360 mg, BI 187004 plasma concentrations, Median, 360 mg single oral, planned time 12 h
REPORTED ENDPOINT: concentration at 12 h (µM)

smiles_input=N#Cc1ccc2c(c1)[C@H]1CCCN(C(=O)c3ccc4[nH]cnc4c3)[C@H]1C2 observed_result=4.63

* * *

Test: Plasma pharmacokinetics of BI 187004 after single oral doses (LC–MS/MS)
Conditions: male, human, plasma, po, 360 mg, BI 187004 plasma concentrations, Min, 360 mg single oral, planned time 24 h
REPORTED ENDPOINT: concentration at 24 h (nM)

smiles_input=N#Cc1ccc2c(c1)[C@H]1CCCN(C(=O)c3ccc4[nH]cnc4c3)[C@H]1C2 reported_endpoint="concentration at 24 h" observed_result=1790

* * *

Assay: Plasma pharmacokinetics of BI 187004 after single oral doses (LC–MS/MS)
Details: male, human, plasma, po, 20 mg, BI 187004 plasma concentrations, 20 mg single oral, planned time 12 h, gMean
REPORTED ENDPOINT: concentration at 12 h (nM)

smiles_input=N#Cc1ccc2c(c1)[C@H]1CCCN(C(=O)c3ccc4[nH]cnc4c3)[C@H]1C2 reported_endpoint="concentration at 12 h" units_symbol=nM observed_result=316

* * *

Assay: Plasma pharmacokinetics of BI 187004 after single oral doses (LC–MS/MS)
Settings: male, human, plasma, po, 10 mg, Plasma concentration Mean, 10 mg single oral; 2.5 h
REPORTED ENDPOINT: concentration at 2.5 h (nM)

smiles_input=N#Cc1ccc2c(c1)[C@H]1CCCN(C(=O)c3ccc4[nH]cnc4c3)[C@H]1C2 reported_endpoint="concentration at 2.5 h" observed_result=376

* * *

Experiment: Plasma pharmacokinetics of BI 187004 after single oral doses (LC–MS/MS)
Details: male, human, plasma, po, 240 mg, BI 187004 plasma concentrations, gMean, 240 mg single oral, planned time 5 h
REPORTED ENDPOINT: concentration at 5 h (µM)

smiles_input=N#Cc1ccc2c(c1)[C@H]1CCCN(C(=O)c3ccc4[nH]cnc4c3)[C@H]1C2 observed_result=3.7

* * *

Assay: Plasma pharmacokinetics of BI 187004 after single oral doses (LC–MS/MS)
Conditions: male, human, plasma, po, 80 mg, BI 187004 plasma concentrations, 80 mg single oral, planned time 72 h, Mean
REPORTED ENDPOINT: concentration at 72 h (nM)

compound="N#Cc1ccc2c(c1)[C@H]1CCCN(C(=O)c3ccc4[nH]cnc4c3)[C@H]1C2 [BI 187004]" units_symbol=nM observed_result=90

* * *

Assay: Plasma pharmacokinetics of BI 187004 after single oral doses (LC–MS/MS)
Conditions: male, human, plasma, po, 360 mg, BI 187004 plasma concentrations, Max, 360 mg single oral, planned time 8 h
REPORTED ENDPOINT: concentration at 8 h (µM)

smiles_input=N#Cc1ccc2c(c1)[C@H]1CCCN(C(=O)c3ccc4[nH]cnc4c3)[C@H]1C2 units_symbol=µM observed_result=9.51

* * *

Test: Plasma pharmacokinetics of BI 187004 after single oral doses (LC–MS/MS)
Settings: male, human, plasma, po, 20 mg, BI 187004 plasma concentrations, 20 mg single oral, planned time 4 h, Median
REPORTED ENDPOINT: concentration at 4 h (nM)

smiles_input=N#Cc1ccc2c(c1)[C@H]1CCCN(C(=O)c3ccc4[nH]cnc4c3)[C@H]1C2 reported_endpoint="concentration at 4 h" observed_result=748

* * *

Test: Plasma pharmacokinetics of BI 187004 after single oral doses (LC–MS/MS)
Conditions: male, human, plasma, po, 160 mg, BI 187004 plasma concentrations, 160 mg single oral, planned time 2 h, gMean
REPORTED ENDPOINT: concentration at 2 h (µM)

smiles_input=N#Cc1ccc2c(c1)[C@H]1CCCN(C(=O)c3ccc4[nH]cnc4c3)[C@H]1C2 observed_result=7.03

* * *

Assay: Plasma pharmacokinetics of BI 187004 after single oral doses (LC–MS/MS)
Conditions: male, human, plasma, po, 240 mg, BI 187004 plasma concentrations, Max, 240 mg single oral, planned time 1 h
REPORTED ENDPOINT: concentration at 1 h (µM)

smiles_input=N#Cc1ccc2c(c1)[C@H]1CCCN(C(=O)c3ccc4[nH]cnc4c3)[C@H]1C2 reported_endpoint="concentration at 1 h" observed_result=10.7

* * *

Experiment: Plasma pharmacokinetics of BI 187004 after single oral doses (LC–MS/MS)
Details: male, human, plasma, po, 10 mg, Plasma concentration Median, 10 mg single oral; 36 h
REPORTED ENDPOINT: concentration at 36 h

compound="N#Cc1ccc2c(c1)[C@H]1CCCN(C(=O)c3ccc4[nH]cnc4c3)[C@H]1C2 [BI 187004]" observed_result="29.6 nM"

* * *

Experiment: Plasma pharmacokinetics of BI 187004 after single oral doses (LC–MS/MS)
Conditions: male, human, plasma, po, 160 mg, BI 187004 plasma concentrations, 160 mg single oral, planned time 4 h, Min
REPORTED ENDPOINT: concentration at 4 h (µM)

smiles_input=N#Cc1ccc2c(c1)[C@H]1CCCN(C(=O)c3ccc4[nH]cnc4c3)[C@H]1C2 observed_result=5.06

* * *

Assay: Plasma pharmacokinetics of BI 187004 after single oral doses (LC–MS/MS)
Details: male, human, plasma, po, 10 mg, Plasma concentration, individual subjects, 10 mg single oral; planned time 5 h
REPORTED ENDPOINT: concentration at 5 h (nM)

smiles_input=N#Cc1ccc2c(c1)[C@H]1CCCN(C(=O)c3ccc4[nH]cnc4c3)[C@H]1C2 observed_result=352

* * *

Test: Plasma pharmacokinetics of BI 187004 after single oral doses (LC–MS/MS)
Details: male, human, plasma, po, 5 mg, Plasma concentration, individual subjects, 5 mg single oral; planned time 1.5 h
REPORTED ENDPOINT: concentration at 1.5 h

smiles_input=N#Cc1ccc2c(c1)[C@H]1CCCN(C(=O)c3ccc4[nH]cnc4c3)[C@H]1C2 observed_result="144 nM"

* * *

Assay: Plasma pharmacokinetics of BI 187004 after single oral doses (LC–MS/MS)
Conditions: male, human, plasma, po, 160 mg, BI 187004 plasma concentrations, 160 mg single oral, planned time 96 h, individual subjects
REPORTED ENDPOINT: concentration at 96 h (nM)

smiles_input=N#Cc1ccc2c(c1)[C@H]1CCCN(C(=O)c3ccc4[nH]cnc4c3)[C@H]1C2 reported_endpoint="concentration at 96 h" units_symbol=nM observed_result=30.2
